Origin of values: patent US20250346644A1

testSystem: T1, mIL2-his (mouse, UniProt P04351 21-169)
T1 construct: also called wild-type mouse IL-2 (with a his-tag); not shown: his-tag
T1 sequence (looked up): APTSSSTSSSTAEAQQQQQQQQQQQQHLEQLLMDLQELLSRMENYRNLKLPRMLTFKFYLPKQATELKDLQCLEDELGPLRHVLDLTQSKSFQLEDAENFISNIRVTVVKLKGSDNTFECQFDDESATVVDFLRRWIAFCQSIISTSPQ
testSummary: BLI ForteBio, Ab on Protein A sensor
measurementName: kon (M⁻¹ s⁻¹)
The reply should contain only the number, in M⁻¹ s⁻¹.

Some entries whose results are on file:
| binder | readoutUnits | kon |
| --- | --- | --- |
| hS4B6-H6K3 (antibody, V domains shown, full antibody) VH: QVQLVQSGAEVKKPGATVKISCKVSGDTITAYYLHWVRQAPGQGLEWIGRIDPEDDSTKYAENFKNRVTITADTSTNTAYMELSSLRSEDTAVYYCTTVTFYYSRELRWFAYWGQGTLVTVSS VL: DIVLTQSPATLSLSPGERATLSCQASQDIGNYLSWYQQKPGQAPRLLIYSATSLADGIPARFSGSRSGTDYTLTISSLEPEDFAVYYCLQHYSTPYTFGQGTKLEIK | M⁻¹ s⁻¹ | 179000 |
| hS4B6-H6K7 (antibody, V domains shown, full antibody) VH: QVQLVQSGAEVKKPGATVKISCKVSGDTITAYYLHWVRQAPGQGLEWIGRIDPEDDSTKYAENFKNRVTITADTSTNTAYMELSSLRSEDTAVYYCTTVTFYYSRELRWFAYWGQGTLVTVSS VL: DIQMTQSPSSLSASVGDRVTITCQASQDIGNYLSWYQQKPGKAPKLLIHSATSLADGVPSRFSGSGSGTDFTLTISSLQPEDFATYYCLQHYSTPYTFGGGTKVEIK | M⁻¹ s⁻¹ | 864000 |
| hS4B6-H3K3 (antibody, V domains shown, full antibody) VH: QVTLKESGPVLVKPTQTLTLTCTVSGDTITAYYLHWIRQPPGKALEWIGRIDPEDDSTKYAENFKNRLTFSADTSKNQVVLTMTNMDPVDTATYYCARVTFYYSRELRWFAYWGQGTLVTVSS VL: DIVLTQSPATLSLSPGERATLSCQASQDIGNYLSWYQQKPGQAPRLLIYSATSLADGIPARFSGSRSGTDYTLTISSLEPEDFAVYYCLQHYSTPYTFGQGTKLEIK | M⁻¹ s⁻¹ | 200000 |

Enquiry: Sample hS4B6-H1K1 (antibody, V domains shown, full antibody) VH: QVQLQESGPGLVKPSETLSLTCTVSGDTITAYYLHWIRQPPGKGLEWIGRIDPEDDSTKYAENFKNRVTISVDTSKNQFSLKLSSVTAADTAVYYCTTVTFYYSRELRWFAYWGQGTTVTVSS VL: DIVLTQSPGTLSLSPGERATLSCQASQDIGNYLSWYQQKPGQAPRLLIYSATSLADGIPDRFSGSRSGTDYTLTISRLEPEDFAVYYCLQHYSTPYTFGQGTKVEIK — what was its kon?
Return: 27700
